Source listed as paper PMC12621043.

I'd be grateful if you could share measured ΔTm at 10 µM for these entries.
biological target: FGFR3A (Homo sapiens); construct: purchased in-house DSF kinase panel (SGC-style construct names; the trailing letter is the construct ID); assay: DSF Tm panel; type: binding; conditions: 10 μM compound
Sequence (P22607 472-761): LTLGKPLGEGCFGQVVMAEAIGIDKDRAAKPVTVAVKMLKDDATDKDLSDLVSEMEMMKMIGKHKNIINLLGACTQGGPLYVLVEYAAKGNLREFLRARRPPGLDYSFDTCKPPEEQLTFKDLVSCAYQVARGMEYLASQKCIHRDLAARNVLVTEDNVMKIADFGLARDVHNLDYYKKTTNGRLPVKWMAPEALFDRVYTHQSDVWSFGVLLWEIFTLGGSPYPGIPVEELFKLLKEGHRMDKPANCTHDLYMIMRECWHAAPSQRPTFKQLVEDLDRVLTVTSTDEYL
Reply numerically in °C, unit not repeated.

I have this compound here, O=C(NCc1ccc(Cl)cc1)Nc1ccc2cc1OCCOCCNc1ccn3ncc-2c3n1 , and I need its recorded ΔTm at 10 µM.
1.7

I have this compound here, O=C(NCc1ccccc1Cl)Nc1ccc2cc1OCCOCCNc1ccn3ncc-2c3n1 , and I need its recorded ΔTm at 10 µM.
2.1

I have this compound here, O=C(NCc1ccc(Cl)cc1Cl)Nc1ccc2cc1OCCOCCNc1ccn3ncc-2c3n1 , and I need its recorded ΔTm at 10 µM.
1.4

I have this compound here, CN1CCN(C(=O)Nc2ccc3cc2OCCOCCNc2ccn4ncc-3c4n2)CC1 , and I need its recorded ΔTm at 10 µM.
3

I have this compound here, Cc1cc(Cl)ccc1CNC(=O)Nc1ccc2cc1OCCOCCNc1ccn3ncc-2c3n1 , and I need its recorded ΔTm at 10 µM.
2.5

I have this compound here, O=C(NCc1cccc(Cl)c1)Nc1ccc2cc1OCCOCCNc1ccn3ncc-2c3n1 , and I need its recorded ΔTm at 10 µM.
3.6

I have this compound here, O=C(NCc1ccc(Cl)cc1F)Nc1ccc2cc1OCCOCCNc1ccn3ncc-2c3n1 , and I need its recorded ΔTm at 10 µM.
1.6

I have this compound here, O=C(NCc1ccccc1)Nc1ccc2cc1OCCOCCNc1ccn3ncc-2c3n1 , and I need its recorded ΔTm at 10 µM.
5

* * *

target: PAK1A (Homo sapiens, UniProt Q13153); construct: purchased in-house DSF kinase panel (SGC-style construct names; the trailing letter is the construct ID); experiment: DSF Tm panel; assay type: binding; settings: 10 μM compound
Sequence (Q13153 249-545): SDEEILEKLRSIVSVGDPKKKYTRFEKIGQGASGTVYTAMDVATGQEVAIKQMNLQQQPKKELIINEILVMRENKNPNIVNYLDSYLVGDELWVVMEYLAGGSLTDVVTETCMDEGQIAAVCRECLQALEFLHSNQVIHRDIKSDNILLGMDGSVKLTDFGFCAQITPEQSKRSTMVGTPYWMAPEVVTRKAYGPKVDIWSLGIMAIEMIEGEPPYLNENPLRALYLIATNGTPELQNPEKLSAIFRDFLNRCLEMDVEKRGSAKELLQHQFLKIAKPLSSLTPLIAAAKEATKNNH
Class assignment keyed on ΔTm at 10 µM, ranges low: < 0.5 °C; intermediate: ≥ 0.5 °C and < 1 °C; high: ≥ 1 °C

Category of O=C(NCc1ccc(C(F)(F)F)cc1)Nc1ccc2cc1OCCOCCNc1ccn3ncc-2c3n1 :
high

Category of O=C(NCc1ccccc1C(F)(F)F)Nc1ccc2cc1OCCOCCNc1ccn3ncc-2c3n1 :
high

Category of C[C@H](NC(=O)Nc1ccc2cc1OCCOCCNc1ccn3ncc-2c3n1)c1ccccc1 :
low

Category of CN1CCN(C(=O)Nc2ccc3cc2OCCOCCNc2ccn4ncc-3c4n2)CC1 :
low

Category of COc1cccc(CNC(=O)Nc2ccc3cc2OCCOCCNc2ccn4ncc-3c4n2)c1 :
low

Category of O=C(NCc1cccc(Cl)c1)Nc1ccc2cc1OCCOCCNc1ccn3ncc-2c3n1 :
intermediate

Category of COc1ccccc1CNC(=O)Nc1ccc2cc1OCCOCCNc1ccn3ncc-2c3n1 :
low

Category of O=C(NCc1ccccc1)Nc1ccc2cc1OCCOCCNc1ccn3ncc-2c3n1 :
low

Category of O=C(NCc1ccccc1Cl)Nc1ccc2cc1OCCOCCNc1ccn3ncc-2c3n1 :
intermediate

Category of Cc1ccc(F)cc1CNC(=O)Nc1ccc2cc1OCCOCCNc1ccn3ncc-2c3n1 :
intermediate

Category of O=C(NCc1ccc(Cl)cc1Cl)Nc1ccc2cc1OCCOCCNc1ccn3ncc-2c3n1 :
high

Category of O=C(NCc1ccc(Cl)cc1)Nc1ccc2cc1OCCOCCNc1ccn3ncc-2c3n1 :
intermediate

Category of Cc1cc(Br)ccc1CNC(=O)Nc1ccc2cc1OCCOCCNc1ccn3ncc-2c3n1 :
high

Category of Cc1cc(Cl)ccc1CNC(=O)Nc1ccc2cc1OCCOCCNc1ccn3ncc-2c3n1 :
high

* * *

target: MERTK (Homo sapiens, UniProt Q12866); construct: purchased in-house DSF kinase panel (SGC-style construct names; the trailing letter is the construct ID); experiment: DSF Tm panel; format: binding; conditions: 10 μM compound
Sequence (Q12866 570-864): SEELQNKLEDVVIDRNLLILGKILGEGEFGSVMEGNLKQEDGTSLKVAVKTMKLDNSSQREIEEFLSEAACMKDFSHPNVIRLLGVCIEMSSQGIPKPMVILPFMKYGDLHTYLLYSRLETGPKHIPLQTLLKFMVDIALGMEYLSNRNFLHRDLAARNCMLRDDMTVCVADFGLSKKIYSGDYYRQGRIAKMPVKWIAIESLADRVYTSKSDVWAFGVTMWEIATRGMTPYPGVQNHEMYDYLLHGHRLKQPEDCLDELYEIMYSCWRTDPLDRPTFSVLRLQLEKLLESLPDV
ΔTm at 10 µM strictly less than 2 °C = TRUE. Otherwise FALSE.

Could you please tell me whether ΔTm at 10 µM recorded for CN1CCN(C(=O)Nc2ccc3cc2OCCOCCNc2ccn4ncc-3c4n2)CC1 is less than 2 °C?
TRUE

Could you please tell me whether ΔTm at 10 µM recorded for O=C(NCc1cccc(Cl)c1)Nc1ccc2cc1OCCOCCNc1ccn3ncc-2c3n1 is less than 2 °C?
TRUE

Could you please tell me whether ΔTm at 10 µM recorded for O=C(NCc1ccccc1)Nc1ccc2cc1OCCOCCNc1ccn3ncc-2c3n1 is less than 2 °C?
TRUE

Could you please tell me whether ΔTm at 10 µM recorded for O=C(NCc1ccc(Cl)cc1Cl)Nc1ccc2cc1OCCOCCNc1ccn3ncc-2c3n1 is less than 2 °C?
FALSE

Could you please tell me whether ΔTm at 10 µM recorded for Cc1cc(Cl)ccc1CNC(=O)Nc1ccc2cc1OCCOCCNc1ccn3ncc-2c3n1 is less than 2 °C?
FALSE

Could you please tell me whether ΔTm at 10 µM recorded for O=C(NCc1ccccc1Cl)Nc1ccc2cc1OCCOCCNc1ccn3ncc-2c3n1 is less than 2 °C?
TRUE

Could you please tell me whether ΔTm at 10 µM recorded for O=C(NCc1ccc(Cl)cc1F)Nc1ccc2cc1OCCOCCNc1ccn3ncc-2c3n1 is less than 2 °C?
FALSE

Could you please tell me whether ΔTm at 10 µM recorded for O=C(NCc1ccc(Cl)cc1)Nc1ccc2cc1OCCOCCNc1ccn3ncc-2c3n1 is less than 2 °C?
FALSE

* * *

target: HIPK2HSF (Homo sapiens, UniProt Q9H2X6); construct: purchased in-house DSF kinase panel (SGC-style construct names; the trailing letter is the construct ID); assay: DSF Tm panel; assay type: binding; conditions: 10 μM compound
Sequence (Q9H2X6 199-527): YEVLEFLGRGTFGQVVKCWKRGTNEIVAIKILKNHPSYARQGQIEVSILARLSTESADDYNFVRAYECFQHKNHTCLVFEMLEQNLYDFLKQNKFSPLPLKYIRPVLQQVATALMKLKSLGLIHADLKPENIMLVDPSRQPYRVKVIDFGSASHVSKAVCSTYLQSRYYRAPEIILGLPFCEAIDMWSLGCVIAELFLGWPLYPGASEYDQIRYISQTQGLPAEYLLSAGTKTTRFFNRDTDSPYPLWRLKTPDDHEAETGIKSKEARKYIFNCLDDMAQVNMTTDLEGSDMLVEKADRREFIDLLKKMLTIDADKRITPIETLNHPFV
attribute measured: ΔTm at 10 µM (°C)
Reply numerically in °C, unit not repeated.

I have this compound here, C[C@H](NC(=O)Nc1ccc2cc1OCCOCCNc1ccn3ncc-2c3n1)c1ccccc1 , and I need its recorded ΔTm at 10 µM.
0.4

I have this compound here, Cc1cc(Br)ccc1CNC(=O)Nc1ccc2cc1OCCOCCNc1ccn3ncc-2c3n1 , and I need its recorded ΔTm at 10 µM.
0.2

I have this compound here, COc1ccc(CNC(=O)Nc2ccc3cc2OCCOCCNc2ccn4ncc-3c4n2)cc1F , and I need its recorded ΔTm at 10 µM.
0.5

I have this compound here, COc1ccc(CNC(=O)Nc2ccc3cc2OCCOCCNc2ccn4ncc-3c4n2)cc1 , and I need its recorded ΔTm at 10 µM.
0.5

I have this compound here, COc1ccccc1CNC(=O)Nc1ccc2cc1OCCOCCNc1ccn3ncc-2c3n1 , and I need its recorded ΔTm at 10 µM.
0.5

I have this compound here, O=C(NCc1ccc(C(F)(F)F)cc1)Nc1ccc2cc1OCCOCCNc1ccn3ncc-2c3n1 , and I need its recorded ΔTm at 10 µM.
0.6

I have this compound here, O=C(NCc1ccccc1C(F)(F)F)Nc1ccc2cc1OCCOCCNc1ccn3ncc-2c3n1 , and I need its recorded ΔTm at 10 µM.
0.2

I have this compound here, COc1cccc(CNC(=O)Nc2ccc3cc2OCCOCCNc2ccn4ncc-3c4n2)c1 , and I need its recorded ΔTm at 10 µM.
0.4

I have this compound here, COc1cc(CNC(=O)Nc2ccc3cc2OCCOCCNc2ccn4ncc-3c4n2)ccc1F , and I need its recorded ΔTm at 10 µM.
0.5

I have this compound here, Cc1ccc(F)cc1CNC(=O)Nc1ccc2cc1OCCOCCNc1ccn3ncc-2c3n1 , and I need its recorded ΔTm at 10 µM.
0.4

* * *

I'd be grateful if you could share measured ΔTm at 10 µM for these entries.
molecular target: EPHA4A (Homo sapiens, UniProt P54764); construct: purchased in-house DSF kinase panel (SGC-style construct names; the trailing letter is the construct ID); assay: DSF Tm panel; assay type: binding; settings: 10 μM compound
Sequence (P54764 621-882): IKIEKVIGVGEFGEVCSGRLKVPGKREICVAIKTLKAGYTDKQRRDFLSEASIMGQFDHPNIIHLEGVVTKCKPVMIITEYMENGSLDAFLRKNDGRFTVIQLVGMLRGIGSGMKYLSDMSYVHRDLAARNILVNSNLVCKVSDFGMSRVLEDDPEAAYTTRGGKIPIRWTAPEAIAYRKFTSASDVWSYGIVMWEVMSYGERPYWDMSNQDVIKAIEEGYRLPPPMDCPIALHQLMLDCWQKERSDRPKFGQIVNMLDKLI

I have this molecule here, COc1cc(CNC(=O)Nc2ccc3cc2OCCOCCNc2ccn4ncc-3c4n2)ccc1F [compound 33] , and I need its recorded ΔTm at 10 µM.
0.4 °C

I have this molecule here, O=C(NCc1ccc(C(F)(F)F)cc1)Nc1ccc2cc1OCCOCCNc1ccn3ncc-2c3n1 [compound 28] , and I need its recorded ΔTm at 10 µM.
0.5 °C

I have this molecule here, COc1cccc(CNC(=O)Nc2ccc3cc2OCCOCCNc2ccn4ncc-3c4n2)c1 [compound 30] , and I need its recorded ΔTm at 10 µM.
0.3 °C

I have this molecule here, COc1ccccc1CNC(=O)Nc1ccc2cc1OCCOCCNc1ccn3ncc-2c3n1 [compound 29] , and I need its recorded ΔTm at 10 µM.
0.3 °C

I have this molecule here, C[C@H](NC(=O)Nc1ccc2cc1OCCOCCNc1ccn3ncc-2c3n1)c1ccccc1 [compound 34] , and I need its recorded ΔTm at 10 µM.
0.3 °C

I have this molecule here, Cc1cc(Br)ccc1CNC(=O)Nc1ccc2cc1OCCOCCNc1ccn3ncc-2c3n1 [compound 24] , and I need its recorded ΔTm at 10 µM.
0.2 °C

I have this molecule here, COc1ccc(CNC(=O)Nc2ccc3cc2OCCOCCNc2ccn4ncc-3c4n2)cc1 [compound 31] , and I need its recorded ΔTm at 10 µM.
0.4 °C

I have this molecule here, COc1ccc(CNC(=O)Nc2ccc3cc2OCCOCCNc2ccn4ncc-3c4n2)cc1F [compound 32] , and I need its recorded ΔTm at 10 µM.
0.4 °C

I have this molecule here, O=C(NCc1ccccc1C(F)(F)F)Nc1ccc2cc1OCCOCCNc1ccn3ncc-2c3n1 [compound 27] , and I need its recorded ΔTm at 10 µM.
0.3 °C

I have this molecule here, Cc1ccc(F)cc1CNC(=O)Nc1ccc2cc1OCCOCCNc1ccn3ncc-2c3n1 [compound 26] , and I need its recorded ΔTm at 10 µM.
0.3 °C
